cell viability listing for selected compounds.
test system: NOMO1; assay: cell viability relative to DMSO control; higher = less cytotoxic; details: RPMI 5 mM glucose + 10% dialyzed FBS; 48 h; 46.1 µM
Give your result in % as a bare value.

Oc1nc(-c2ccc(C(F)(F)F)cc2)nc2c1CSCC2; 90.4

Now turn to the next compound.
Q) I would be grateful if you could share the reported cell viability for "CNC(=O)c1ccc(Nc2cc(Nc3ccccc3[S+](=O)([O-])C(C)C)c3cc[nH]c3n2)nc1" .
A) 34

====

cell viability listing for selected compounds.
test system: P12-Ichikawa; assay: cell viability relative to DMSO control; higher = less cytotoxic; details: RPMI 5 mM glucose + 10% FBS; 48 h; 0.19 µM
Give your result in % as a bare value.

Nc1ccc([S+](=O)([O-])Nc2ccnn2-c2ccccc2)cc1; 115
CCOC(=O)C(C)OC1=CC=CC2=C1\C=C/N(CC(=O)NC3=CC=C4OCCOC4=C3)C2=O (stereo not given); 103
Nc1ncnc2c1ncn2[C@@H]1O[C@H](CO)C[C@H]1O; 96
CC12CC3CC(C)(C1)CC(N)(C3)C2; 122
C[C@@H](CN1CC(=O)NC(=O)C1)N1CC(=O)NC(=O)C1; 97.7

Q) I would be grateful if you could share the reported cell viability for COc1ccc2c(c1)[C@]13CCCCC1C(C2)N(C)CC3 (stereo not given in full) .
A) 129

Q) I would be grateful if you could share the reported cell viability for "COC(=O)c1ccc2c(c1)NC(=O)/C2=C(\Nc1ccc(N(C)C(=O)CN2CCN(C)CC2)cc1)c1ccccc1" .
A) 104

Q) I would be grateful if you could share the reported cell viability for "CC(C)OC(=O)[C@H](C)N[P@](=O)(OC[C@H]1O[C@@H](N2\C=C/C(=O)NC2=O)[C@](C)(F)[C@@H]1O)OC3=CC=CC=C3" .
A) 101

Q) I would be grateful if you could share the reported cell viability for "CCCCOc1c(C(=O)c2c(F)cc(C)cc2F)cnc2[nH]ncc12" .
A) 108

Q) I would be grateful if you could share the reported cell viability for "Cc1cc2c(C(N)=O)cccc2n1-c1nc2c(c(NCc3ccccc3)n1)COCC2" .
A) 94.6

====

cell viability listing for selected molecules.
tested on: P12-Ichikawa; test: cell viability relative to DMSO control; higher = less cytotoxic; settings: RPMI 5 mM glucose + 10% FBS; 48 h; 0.19 µM
Give your result in % as a bare value.

These recorded examples may help you get a feel for the data.
CN(C)CC(C)(C)CNc1nn2c(-c3ccccc3)nnc2cc1C1CCC1; 106
CC1=CC(=CC(=C1C\C2=N\CCN2)C)C(C)(C)C; 113
C[C@@H]1CCO[C@H]2CN\3/C=C(/C(=O)NCC4=C(F)C=C(F)C=C4)C(=O)\C(=C3C(=O)N12)O; 104
COc1cc2c(cc1OC)CN(CCc1ccc(NC(=O)c3cc(OC)c(OC)cc3NC(=O)c3cnc4ccccc4c3)cc1)CC2; 118
CNCC[C@H](Oc1cccc2ccccc12)c1cccs1; 119
O=C(CCCN1CCN(c2ccc(F)cc2)CC1)NC1c2ccccc2CSc2ccccc21 (stereo not drawn); 123
OCC(O)C(O)C(O)CO (stereo not drawn); 92.3

Q) I would be grateful if you could share the reported cell viability for "COc1c(C)c2c(c(O)c1C/C=C(\C)CCC(=O)O)C(=O)OC2" .
A) 104

====

test system: SEM cells; assay: cell viability relative to DMSO control; higher = less cytotoxic; conditions: HPLM + 10% dialyzed FBS; 48 h; 0.0211 µM
cell viability listing for selected compounds.
Answer with the value and then the unit.

These recorded examples may help you get a feel for the data.
CC[C@H]1OC(=O)[C@H](C)C(=O)[C@H](C)[C@@H](O[C@H]2O[C@H](C)C[C@H](N(C)C)[C@H]2O)[C@](C)(OC)C[C@@H](C)C(=O)[C@H](C)[C@H]2N(CCCCn3cnc(-c4cccnc4)c3)C(=O)O[C@]12C; 120%
COC1=C(OCCCN2CCOCC2)C=CC\3=C1/N=C(/NC(=O)C4=CN=C(N)N=C4)N5CC/N=C35; 99.2%

Now turn to the next compound.
Q) What measured cell viability is associated with "Cc1cc2c(C(N)=O)cccc2n1-c1nc2c(c(NCc3ccccc3)n1)COCC2" on SEM cells?
A) 87.2%

====

tested on: SEM cells; test: cell viability relative to DMSO control; higher = less cytotoxic; conditions: HPLM + 10% dialyzed FBS; 48 h; 5.12 µM
cell viability listing for selected compounds.
Give your result in % as a bare value.

These recorded examples may help you get a feel for the data.
COC1=C(OCCCN2CCOCC2)C=C3N=CC=C(OC4=CC=C(C=C4F)\C5=C\N=C(\NC6=CC=C(F)C=C6)N(C)C5=O)C3=C1; 47.8
C[C@@H]1CCO[C@H]2CN\3/C=C(/C(=O)NCC4=C(F)C=C(F)C=C4)C(=O)\C(=C3C(=O)N12)O; 104
C[C@]12CC[C@H]3[C@@H](CCC4=CC(=O)CC[C@@H]43)[C@@H]1CC[C@@H]2OC(=O)CCc1ccccc1; 85.9
Cc1cccc(Nc2ccncc2[S+](=O)([O-])NC(=O)NC(C)C)c1; 75.5
Cc1coc2c1C(=O)C(=O)c1c-2ccc2c1CCCC2(C)C; 99.6
CC(=O)Oc1ccccc1C(=O)Nc1ncc([N+](=O)[O-])s1; 96.9
CCCN1CCO[C@@H]2c3cc(O)ccc3OC[C@H]21; 68.4
CCCCCCCCCCCCCC(=O)N[C@H](CO)[C@H](O)c1ccc([N+](=O)[O-])cc1; 13.8

Now turn to the next compound.
Q) I would be grateful if you could share the reported cell viability for "Nc1ccc([S+](=O)([O-])Nc2ccnn2-c2ccccc2)cc1" .
A) 94.8

====

system: P12-Ichikawa; assay: AUC of viability dose-response curve (% viability x log10 dose units); higher = less sensitive; details: RPMI 5 mM glucose + 10% FBS; 48 h
Note to self: AUC of viability dose-response curve under 400 means Met, ties and anything higher get Not met.

CC(C)c1cc(C(C)C)c(CC(=O)N[S+](=O)([O-])Oc2c(C(C)C)cccc2C(C)C)c(C(C)C)c1; Not met
COc1cccc2c1C(=O)c1c(O)c3c(c(O)c1C2=O)C[C@@](O)(C(=O)CO)C[C@@H]3O[C@H]1C[C@H](N)[C@H](O)[C@H](C)O1; Met

Q) Consider the compound "O=C(Nc1cc(C(F)(F)F)cc(C(F)(F)F)c1)c1cc(Cl)ccc1O" . Is its AUC of viability dose-response curve strictly less than 400?
A) Met

====

tested on: P12-Ichikawa; assay: cell viability relative to DMSO control; higher = less cytotoxic; settings: HPLM + 10% dialyzed FBS; 48 h; 0.19 µM
quantity_kind: cell viability
Answer with the value and then the unit.

These recorded examples may help you get a feel for the data.
CC1=CC(=CC(=C1C\C2=N\CCN2)C)C(C)(C)C; 124%
CCCCCNC(=O)N1CCC(CN(Cc2ccc(Cl)cc2)Cc2ccc([N+](=O)[O-])s2)C1 (stereo not drawn); 114%
COC1=C(OCCCN2CCOCC2)C=CC\3=C1/N=C(/NC(=O)C4=CN=C(N)N=C4)N5CC/N=C35; 85.8%
CC#CCn1c(N2CCC[C@@H](N)C2)nc2c1c(=O)n(Cc1nc(C)c3ccccc3n1)c(=O)n2C; 109%
CCCCOc1c(C(=O)c2c(F)cc(C)cc2F)cnc2[nH]ncc12; 89.6%
Nc1c2c(nc3ccccc13)CCCC2; 120%
CNC(=O)c1ccc(Nc2cc(Nc3ccccc3[S+](=O)([O-])C(C)C)c3cc[nH]c3n2)nc1; 111%

Now turn to the next molecule.
Q) I would be grateful if you could share the reported cell viability for "COC(=O)c1ccc2c(c1)NC(=O)/C2=C(\Nc1ccc(N(C)C(=O)CN2CCN(C)CC2)cc1)c1ccccc1" .
A) 101%

====

system: SEM cells; experiment: cell viability relative to DMSO control; higher = less cytotoxic; settings: RPMI 5 mM glucose + 10% dialyzed FBS; 48 h; 0.0632 µM
quantity_kind: cell viability (%)
Give your result in % as a bare value.

These recorded examples may help you get a feel for the data.
COc1c(C)c2c(c(O)c1C/C=C(\C)CCC(=O)O)C(=O)OC2; 114
COc1ccc2c(c1)CN(C)CC2c1ccc(Cl)c(Cl)c1 (centres undefined); 138
O=C(O)c1cc(/N=N/c2ccc([S+](=O)([O-])Nc3ccccn3)cc2)ccc1O; 117

Q) I would be grateful if you could share the reported cell viability for "Oc1nc(-c2ccc(C(F)(F)F)cc2)nc2c1CSCC2" .
A) 105

====

tested on: P12-Ichikawa; experiment: cell viability relative to DMSO control; higher = less cytotoxic; details: HPLM + 10% dialyzed FBS; 48 h; 46.1 µM
quantity_kind: cell viability (%)
Give your result in % as a bare value.

These recorded examples may help you get a feel for the data.
COc1cc[nH]c2ncc(C(=O)C(=O)N3CCN(C(=O)c4ccccc4)C[C@H]3C)c1-2; 102
COC(=O)c1ccc2c(c1)NC(=O)/C2=C(\Nc1ccc(N(C)C(=O)CN2CCN(C)CC2)cc1)c1ccccc1; 96.9
CN1CC(=O)N2[C@H](c3ccc4c(c3)OCO4)c3[nH]c4ccccc4c3C[C@@H]2C1=O; 78.8
Nc1ccc([S+](=O)([O-])Nc2ccnn2-c2ccccc2)cc1; 107

Q) I would be grateful if you could share the reported cell viability for O=C(CCCN1CCN(c2ccc(F)cc2)CC1)NC1c2ccccc2CSc2ccccc21 (stereo not given) .
A) 71.4

Q) I would be grateful if you could share the reported cell viability for "C[C@]12CC[C@H]3[C@@H](CCC4=CC(=O)CC[C@@H]43)[C@@H]1CC[C@@H]2OC(=O)CCc1ccccc1" .
A) 117

Q) I would be grateful if you could share the reported cell viability for CC(N[C@H]1CCCC[C@@H]1NC(=O)c1ccc(Cl)cc1)c1cccc2ccccc12 (stereo not given in full) .
A) 28.1

Q) I would be grateful if you could share the reported cell viability for "COc1c(C)c2c(c(O)c1C/C=C(\C)CCC(=O)O)C(=O)OC2" .
A) 38.2

Q) I would be grateful if you could share the reported cell viability for "CCCCOCCOc1nc(-c2ccc(C(=O)O)c(F)c2)sc1C" .
A) 110

Q) I would be grateful if you could share the reported cell viability for "C[C@@H](CN1CC(=O)NC(=O)C1)N1CC(=O)NC(=O)C1" .
A) 2.49
